Provide the reported pEC50 of each item.
# systemName: glutathione-S-transferase (GST) tagged LXRalpha LBD (ligand binding domain) (Homo sapiens)
# Construct: purchased Invitrogen pv4655
# Sequence (Q13133 209-447 limits assumed): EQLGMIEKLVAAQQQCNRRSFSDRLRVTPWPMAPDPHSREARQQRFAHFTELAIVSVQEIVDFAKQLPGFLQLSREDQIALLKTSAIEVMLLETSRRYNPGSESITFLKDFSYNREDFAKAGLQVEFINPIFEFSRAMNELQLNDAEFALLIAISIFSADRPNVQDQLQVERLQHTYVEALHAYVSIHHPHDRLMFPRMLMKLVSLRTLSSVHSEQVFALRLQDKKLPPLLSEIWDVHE
# testMethodNotes: biochemical
# conditionsUsed: LXR alpha IP, potency (Inflection Point), compound-induced co-activator recruitment, TR-FRET
Give bare numbers, as −log10 of the molar value.

Solved cases (4 shown):
{"compound": "CN(C)C(=O)c1ccc(OCCCCC2CCN(C(=O)C(O)(c3cccc(Cl)c3)C(F)(F)F)CC2)cc1Cl (single isomer, unassigned)", "systemName": "glutathione-S-transferase (GST) tagged LXRalpha LBD (ligand binding domain) (Homo sapiens)", "pEC50": 6.89}
{"compound": "CN(C)C(=O)c1ccc(OCC[C@@H]2CC23CCN(C(=O)C2(c4ccccc4Br)CCC2)CC3)cc1Cl (single isomer, unassigned)", "systemName": "glutathione-S-transferase (GST) tagged LXRalpha LBD (ligand binding domain) (Homo sapiens)", "pEC50": 6.78}
{"compound": "CN(C)C(=O)c1ccc(OCCC2CC23CCN(C(=O)C(C)(C)c2ccccc2)CC3)nc1Cl (stereo not drawn)", "systemName": "glutathione-S-transferase (GST) tagged LXRalpha LBD (ligand binding domain) (Homo sapiens)", "pEC50": 6.69}
{"compound": "O=C(c1ccc(OCCCCC2CCN(C(=O)C(O)(c3ccccc3)C(F)(F)F)CC2)cc1Cl)N1CC(F)(F)C1 (single isomer, unassigned)", "systemName": "glutathione-S-transferase (GST) tagged LXRalpha LBD (ligand binding domain) (Homo sapiens)", "pEC50": 7.32}

Report pEC50 for each item below.
1. CN(C)C(=O)c1ccc(OCCCCC2CCN(C(=O)C(O)(c3cccnc3)C(F)(F)F)CC2)nc1Cl (stereo not drawn)
2. CN(C)C(=O)c1ccc(OC[C@@H]2C[C@H]2C2CCN(C(=O)[C@](O)(c3ccccc3)C(F)(F)C(F)(F)F)CC2)cc1Cl (single isomer, unassigned)

[5.91, 5.86]
